Data credit: PubChem BioAssay (NCATS)

Experiment: Quantitative High-Throughput drug screen in 47 multiple myeloma cell lines against the NCATS MIPE library collection: Karpas25_ECACC cell viability assay (AID 1918968; note: nearly all actives have a fitted effect of over 35% in size)
Conditions: Karpas25 myeloma viability, CellTiter-Glo ATP, 48 h; series mostly up to 45.8 µM
Results filed as inconclusive are left out. Active and inactive are the calls of the source. Calls come from the whole dose curve; as a rule, active = well fitted cell-killing curve with a large enough effect; inconclusive = small, poorly fitted or top-dose-only effect, or effect the other way; inactive = no such curve, though single readings can be large or run the other way.
Your response should consist of one outcome taken from y (active), n (inactive)

Cc1cc2c(s1)Nc1ccccc1N=C2N1CCN(C)CC1 = y
CCOC(=O)C1=C[C@@H](OC(CC)CC)[C@H](NC(C)=O)[C@@H](N)C1 = n

Shifting focus to the compound that follows.
[ask] Assay outcome for CCOc1cc(CC(=O)N[C@@H](CC(C)C)c2ccccc2N2CCCCC2)ccc1C(=O)O : what was it?
[reply] n
